Molecular target: KCNQ2/3 channels (Homo sapiens, UniProt O43525+O43526)
Construct: expressed in transfected cells; host or cells: CHO cells, transient expression
Sequence (O43526 whole entry): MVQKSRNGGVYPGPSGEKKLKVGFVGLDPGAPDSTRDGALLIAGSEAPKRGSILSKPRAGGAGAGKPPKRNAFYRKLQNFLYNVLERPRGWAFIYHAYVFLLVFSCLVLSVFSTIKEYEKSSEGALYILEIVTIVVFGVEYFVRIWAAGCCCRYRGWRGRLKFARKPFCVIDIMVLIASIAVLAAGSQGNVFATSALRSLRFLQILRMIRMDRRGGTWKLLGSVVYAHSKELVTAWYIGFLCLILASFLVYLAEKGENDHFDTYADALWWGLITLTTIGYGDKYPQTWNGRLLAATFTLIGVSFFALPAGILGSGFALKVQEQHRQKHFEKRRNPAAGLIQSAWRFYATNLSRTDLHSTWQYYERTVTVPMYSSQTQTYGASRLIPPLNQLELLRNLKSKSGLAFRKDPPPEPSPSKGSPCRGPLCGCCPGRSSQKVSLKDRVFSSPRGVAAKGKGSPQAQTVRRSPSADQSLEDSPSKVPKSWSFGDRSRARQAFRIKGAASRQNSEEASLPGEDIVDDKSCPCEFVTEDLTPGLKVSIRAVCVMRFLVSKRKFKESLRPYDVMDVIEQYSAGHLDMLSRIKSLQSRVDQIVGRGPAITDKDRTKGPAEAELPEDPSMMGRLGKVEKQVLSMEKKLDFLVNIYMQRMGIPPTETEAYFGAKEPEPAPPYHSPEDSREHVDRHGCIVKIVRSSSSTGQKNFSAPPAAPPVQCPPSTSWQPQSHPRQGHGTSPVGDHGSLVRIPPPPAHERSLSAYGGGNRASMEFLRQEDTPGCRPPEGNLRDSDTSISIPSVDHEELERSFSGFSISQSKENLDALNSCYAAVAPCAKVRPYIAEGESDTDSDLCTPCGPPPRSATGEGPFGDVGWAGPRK
Sequence (O43525 whole entry): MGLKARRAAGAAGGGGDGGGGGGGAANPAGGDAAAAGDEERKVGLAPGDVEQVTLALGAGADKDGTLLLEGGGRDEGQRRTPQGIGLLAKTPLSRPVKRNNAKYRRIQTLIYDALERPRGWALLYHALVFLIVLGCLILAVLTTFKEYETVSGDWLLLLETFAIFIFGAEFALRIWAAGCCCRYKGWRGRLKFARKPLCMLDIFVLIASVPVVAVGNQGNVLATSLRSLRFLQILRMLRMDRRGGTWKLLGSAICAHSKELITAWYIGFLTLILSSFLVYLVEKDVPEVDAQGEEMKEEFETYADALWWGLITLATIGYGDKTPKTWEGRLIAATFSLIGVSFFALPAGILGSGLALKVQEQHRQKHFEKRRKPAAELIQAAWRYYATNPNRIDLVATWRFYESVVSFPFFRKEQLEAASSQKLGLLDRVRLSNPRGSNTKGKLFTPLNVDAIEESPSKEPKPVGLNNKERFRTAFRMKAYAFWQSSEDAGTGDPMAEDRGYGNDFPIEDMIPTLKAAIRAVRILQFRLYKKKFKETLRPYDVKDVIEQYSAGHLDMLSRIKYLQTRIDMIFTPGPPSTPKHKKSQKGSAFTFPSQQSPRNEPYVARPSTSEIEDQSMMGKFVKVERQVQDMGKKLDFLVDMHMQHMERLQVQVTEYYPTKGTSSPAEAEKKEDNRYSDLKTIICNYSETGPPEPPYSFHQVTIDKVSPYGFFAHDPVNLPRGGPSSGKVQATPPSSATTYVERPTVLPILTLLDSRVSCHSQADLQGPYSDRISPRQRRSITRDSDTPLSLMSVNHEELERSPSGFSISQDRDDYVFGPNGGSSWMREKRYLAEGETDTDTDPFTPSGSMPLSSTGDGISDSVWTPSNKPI
Experiment: KCNQ2/3 currents, voltage clamp of CHO cells transiently expressing heterologous KCNQ2/3 channels
Assay type: cell-based
Settings: CHO cells, 100 nM-30 μM, Hill fit, mean±SEM; read-out: EC50 of half activation shift (ΔV1/2) of KCNQ2/3 currents
Assay Readout: pEC50
Numbers only, as −log10 of the molar value.

CCOC(=O)Nc1ccc(NCc2ccc(C(F)(F)F)cc2)c(F)c1N
6.72

Value sought for every listed molecule: pEC50.
1. CC(C)OC(=O)Nc1ccc(NCc2ccc(F)cc2)cc1N
2. CCOC(=O)Nc1ccc(NCc2ccc(F)cc2)c(F)c1N [SF0034, reference compound]
3. CCOC(=O)Nc1ccc(NCc2cccc(C(F)(F)F)c2)cc1N

1: 5.83; 2: 6.22; 3: 6.13
